System: 126254-015-R-J1-PDC complex spheroid growth, % test/control
PROCEDURE_SUMMARY: Anticancer human tumor 126254-015-R-J1-PDC patient-derived soft tissue sarcoma cell line growth inhibition [Asc]
APPLIED_CONDITIONS: second compound 1 µM; first compound 0.316 µM; hits give low values
For each record, write down the corresponding viability, T/C.
Answers are plain numbers, in %.

Some solved entries appear below for comparison.
{"COMPOUND": "O=C(c1ccc(F)c(F)c1Nc1ccc(I)cc1F)N1CC(O)([C@@H]2CCCCN2)C1 + Cc1c(S(C)(=O)=O)c(-c2cc(F)cc(N3CCN(c4ccc(NS(=O)(=O)c5ccc(NC(CCN6CCC(C(=O)OCCCP(=O)(O)O)CC6)CSc6ccccc6)c(S(=O)(=O)C(F)(F)F)c5)cc4)CC3)c2)c(-c2ccc(Cl)cc2)n1C(C)C", "viability, T/C, %": 65.5}
{"COMPOUND": "CCN1CCN(Cc2ccc(Nc3ncc(F)c(-c4cc(F)c5nc(C)n(C(C)C)c5c4)n3)nc2)CC1 + Cc1c(S(C)(=O)=O)c(-c2cc(F)cc(N3CCN(c4ccc(NS(=O)(=O)c5ccc(NC(CCN6CCC(C(=O)OCCCP(=O)(O)O)CC6)CSc6ccccc6)c(S(=O)(=O)C(F)(F)F)c5)cc4)CC3)c2)c(-c2ccc(Cl)cc2)n1C(C)C", "viability, T/C, %": 97.9}
{"COMPOUND": "C=CC(=O)N1CCN(c2nc(=O)n(-c3c(C)ccnc3C(C)C)c3nc(-c4c(O)cccc4F)c(F)cc23)C(C)C1 (configuration not stated) + CNC(C)C(=O)NC1CN(S(=O)(=O)c2cccc(S(=O)(=O)N3CCC4CCC(C(=O)NC(c5ccccc5)c5ccccc5)N4C(=O)C(NC(=O)C(C)NC)C3)c2)CCC2CCC(C(=O)NC(c3ccccc3)c3ccccc3)N2C1=O", "viability, T/C, %": 67.5}
{"COMPOUND": "C#Cc1c(F)ccc2cc(O)cc(-c3ncc4c(N5CC6CCC(C5)N6)nc(OCC56CCCN5CC(F)C6)nc4c3F)c12 (configuration not stated) + CNC(C)C(=O)NC1CN(S(=O)(=O)c2cccc(S(=O)(=O)N3CCC4CCC(C(=O)NC(c5ccccc5)c5ccccc5)N4C(=O)C(NC(=O)C(C)NC)C3)c2)CCC2CCC(C(=O)NC(c3ccccc3)c3ccccc3)N2C1=O", "viability, T/C, %": 56.1}
{"COMPOUND": "COc1c(OCCCN2CCOCC2)ccc2c3n(c(=NC(=O)c4cnc(N)nc4)nc12)CCN3 + CNC(C)C(=O)NC1CN(S(=O)(=O)c2cccc(S(=O)(=O)N3CCC4CCC(C(=O)NC(c5ccccc5)c5ccccc5)N4C(=O)C(NC(=O)C(C)NC)C3)c2)CCC2CCC(C(=O)NC(c3ccccc3)c3ccccc3)N2C1=O", "viability, T/C, %": 15.6}

Return reported viability, T/C values for all items listed beneath this line.
1. C=C(F)C(=O)N1CCN(c2nc(OCC3CCCN3C)nc3c2CCN(c2cccc4cccc(Cl)c24)C3)CC1CC#N (configuration not stated) + CNC(C)C(=O)NC1CN(S(=O)(=O)c2cccc(S(=O)(=O)N3CCC4CCC(C(=O)NC(c5ccccc5)c5ccccc5)N4C(=O)C(NC(=O)C(C)NC)C3)c2)CCC2CCC(C(=O)NC(c3ccccc3)c3ccccc3)N2C1=O
2. C=C(F)C(=O)N1CCN(c2nc(OCC3CCCN3C)nc3c2CCN(c2cccc4cccc(Cl)c24)C3)CC1CC#N (configuration not stated) + Cc1c(S(C)(=O)=O)c(-c2cc(F)cc(N3CCN(c4ccc(NS(=O)(=O)c5ccc(NC(CCN6CCC(C(=O)OCCCP(=O)(O)O)CC6)CSc6ccccc6)c(S(=O)(=O)C(F)(F)F)c5)cc4)CC3)c2)c(-c2ccc(Cl)cc2)n1C(C)C

1: 57.5; 2: 76.3

====

Tested on: 126254-015-R-J1-PDC complex spheroid growth, % test/control
PROCEDURE_SUMMARY: Anticancer human tumor 126254-015-R-J1-PDC cell line growth inhibition [Asc];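 also: spheroids exposed to compound for seven days; 100% = DMSO vehicle control wells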
APPLIED_CONDITIONS: second compound 0.1 µM; first compound 0.0316 µM; hits give low values
Simple rule here: viability, T/C less than 70% is rule met, otherwise rule not met.

// below: answered compounds
{"COMPOUND": "O=C(c1ccc(F)c(F)c1Nc1ccc(I)cc1F)N1CC(O)([C@@H]2CCCCN2)C1 + Cc1c(S(C)(=O)=O)c(-c2cc(F)cc(N3CCN(c4ccc(NS(=O)(=O)c5ccc(NC(CCN6CCC(C(=O)OCCCP(=O)(O)O)CC6)CSc6ccccc6)c(S(=O)(=O)C(F)(F)F)c5)cc4)CC3)c2)c(-c2ccc(Cl)cc2)n1C(C)C", "SUBJECT_OF_TEST": "126254-015-R-J1-PDC complex spheroid growth, % test/control", "LABEL_CLASS": "rule not met"}
{"COMPOUND": "Cn1ncnc1[C@H]1c2n[nH]c(=O)c3cc(F)cc(c23)N[C@@H]1c1ccc(F)cc1 + CNC(C)C(=O)NC1CN(S(=O)(=O)c2cccc(S(=O)(=O)N3CCC4CCC(C(=O)NC(c5ccccc5)c5ccccc5)N4C(=O)C(NC(=O)C(C)NC)C3)c2)CCC2CCC(C(=O)NC(c3ccccc3)c3ccccc3)N2C1=O", "SUBJECT_OF_TEST": "126254-015-R-J1-PDC complex spheroid growth, % test/control", "LABEL_CLASS": "rule met"}
{"COMPOUND": "CCN1CCN(Cc2ccc(Nc3ncc(F)c(-c4cc(F)c5nc(C)n(C(C)C)c5c4)n3)nc2)CC1 + Cc1c(S(C)(=O)=O)c(-c2cc(F)cc(N3CCN(c4ccc(NS(=O)(=O)c5ccc(NC(CCN6CCC(C(=O)OCCCP(=O)(O)O)CC6)CSc6ccccc6)c(S(=O)(=O)C(F)(F)F)c5)cc4)CC3)c2)c(-c2ccc(Cl)cc2)n1C(C)C", "SUBJECT_OF_TEST": "126254-015-R-J1-PDC complex spheroid growth, % test/control", "LABEL_CLASS": "rule not met"}
{"COMPOUND": "Cn1ncnc1[C@H]1c2n[nH]c(=O)c3cc(F)cc(c23)N[C@@H]1c1ccc(F)cc1 + Cc1c(S(C)(=O)=O)c(-c2cc(F)cc(N3CCN(c4ccc(NS(=O)(=O)c5ccc(NC(CCN6CCC(C(=O)OCCCP(=O)(O)O)CC6)CSc6ccccc6)c(S(=O)(=O)C(F)(F)F)c5)cc4)CC3)c2)c(-c2ccc(Cl)cc2)n1C(C)C", "SUBJECT_OF_TEST": "126254-015-R-J1-PDC complex spheroid growth, % test/control", "LABEL_CLASS": "rule not met"}

Lab note: viability, T/C threshold 70%. Does this compound come in strictly under it? O=C(c1cc(Cc2n[nH]c(=O)c3ccccc23)ccc1F)N1CCN(C(=O)C2CC2)CC1 + CNC(C)C(=O)NC1CN(S(=O)(=O)c2cccc(S(=O)(=O)N3CCC4CCC(C(=O)NC(c5ccccc5)c5ccccc5)N4C(=O)C(NC(=O)C(C)NC)C3)c2)CCC2CCC(C(=O)NC(c3ccccc3)c3ccccc3)N2C1=O
rule met

Lab note: viability, T/C threshold 70%. Does this compound come in strictly under it? COc1c(OCCCN2CCOCC2)ccc2c3n(c(=NC(=O)c4cnc(N)nc4)nc12)CCN3 + Cc1c(S(C)(=O)=O)c(-c2cc(F)cc(N3CCN(c4ccc(NS(=O)(=O)c5ccc(NC(CCN6CCC(C(=O)OCCCP(=O)(O)O)CC6)CSc6ccccc6)c(S(=O)(=O)C(F)(F)F)c5)cc4)CC3)c2)c(-c2ccc(Cl)cc2)n1C(C)C
rule met

Lab note: viability, T/C threshold 70%. Does this compound come in strictly under it? C=C(F)C(=O)N1CCN(c2nc(OCC3CCCN3C)nc3c2CCN(c2cccc4cccc(Cl)c24)C3)CC1CC#N (stereo not drawn) + Cc1c(S(C)(=O)=O)c(-c2cc(F)cc(N3CCN(c4ccc(NS(=O)(=O)c5ccc(NC(CCN6CCC(C(=O)OCCCP(=O)(O)O)CC6)CSc6ccccc6)c(S(=O)(=O)C(F)(F)F)c5)cc4)CC3)c2)c(-c2ccc(Cl)cc2)n1C(C)C
rule not met

Lab note: viability, T/C threshold 70%. Does this compound come in strictly under it? C#Cc1c(F)ccc2cc(O)cc(-c3ncc4c(N5CC6CCC(C5)N6)nc(OCC56CCCN5CC(F)C6)nc4c3F)c12 (stereo not drawn) + Cc1c(S(C)(=O)=O)c(-c2cc(F)cc(N3CCN(c4ccc(NS(=O)(=O)c5ccc(NC(CCN6CCC(C(=O)OCCCP(=O)(O)O)CC6)CSc6ccccc6)c(S(=O)(=O)C(F)(F)F)c5)cc4)CC3)c2)c(-c2ccc(Cl)cc2)n1C(C)C
rule not met

Lab note: viability, T/C threshold 70%. Does this compound come in strictly under it? CCN1CCN(Cc2ccc(Nc3ncc(F)c(-c4cc(F)c5nc(C)n(C(C)C)c5c4)n3)nc2)CC1 + CNC(C)C(=O)NC1CN(S(=O)(=O)c2cccc(S(=O)(=O)N3CCC4CCC(C(=O)NC(c5ccccc5)c5ccccc5)N4C(=O)C(NC(=O)C(C)NC)C3)c2)CCC2CCC(C(=O)NC(c3ccccc3)c3ccccc3)N2C1=O
rule met

Lab note: viability, T/C threshold 70%. Does this compound come in strictly under it? O=C(c1ccc(F)c(F)c1Nc1ccc(I)cc1F)N1CC(O)([C@@H]2CCCCN2)C1 + CNC(C)C(=O)NC1CN(S(=O)(=O)c2cccc(S(=O)(=O)N3CCC4CCC(C(=O)NC(c5ccccc5)c5ccccc5)N4C(=O)C(NC(=O)C(C)NC)C3)c2)CCC2CCC(C(=O)NC(c3ccccc3)c3ccccc3)N2C1=O
rule met

Lab note: viability, T/C threshold 70%. Does this compound come in strictly under it? C=CC(=O)N1CCN(c2nc(=O)n(-c3c(C)ccnc3C(C)C)c3nc(-c4c(O)cccc4F)c(F)cc23)C(C)C1 (stereo not drawn) + Cc1c(S(C)(=O)=O)c(-c2cc(F)cc(N3CCN(c4ccc(NS(=O)(=O)c5ccc(NC(CCN6CCC(C(=O)OCCCP(=O)(O)O)CC6)CSc6ccccc6)c(S(=O)(=O)C(F)(F)F)c5)cc4)CC3)c2)c(-c2ccc(Cl)cc2)n1C(C)C
rule not met

The measured values listed here are drawn from PubChem BioAssay AID1963429.
